molecules and their reported Ki
- study.system: human PDE2A1 (Homo sapiens, UniProt O00408)
- Construct: GST; purchased BPS Bioscience (San Diego, Calif.) 60020; host or cells: insect cells
- Sequence (O00408 1-920 isoform O00408-2): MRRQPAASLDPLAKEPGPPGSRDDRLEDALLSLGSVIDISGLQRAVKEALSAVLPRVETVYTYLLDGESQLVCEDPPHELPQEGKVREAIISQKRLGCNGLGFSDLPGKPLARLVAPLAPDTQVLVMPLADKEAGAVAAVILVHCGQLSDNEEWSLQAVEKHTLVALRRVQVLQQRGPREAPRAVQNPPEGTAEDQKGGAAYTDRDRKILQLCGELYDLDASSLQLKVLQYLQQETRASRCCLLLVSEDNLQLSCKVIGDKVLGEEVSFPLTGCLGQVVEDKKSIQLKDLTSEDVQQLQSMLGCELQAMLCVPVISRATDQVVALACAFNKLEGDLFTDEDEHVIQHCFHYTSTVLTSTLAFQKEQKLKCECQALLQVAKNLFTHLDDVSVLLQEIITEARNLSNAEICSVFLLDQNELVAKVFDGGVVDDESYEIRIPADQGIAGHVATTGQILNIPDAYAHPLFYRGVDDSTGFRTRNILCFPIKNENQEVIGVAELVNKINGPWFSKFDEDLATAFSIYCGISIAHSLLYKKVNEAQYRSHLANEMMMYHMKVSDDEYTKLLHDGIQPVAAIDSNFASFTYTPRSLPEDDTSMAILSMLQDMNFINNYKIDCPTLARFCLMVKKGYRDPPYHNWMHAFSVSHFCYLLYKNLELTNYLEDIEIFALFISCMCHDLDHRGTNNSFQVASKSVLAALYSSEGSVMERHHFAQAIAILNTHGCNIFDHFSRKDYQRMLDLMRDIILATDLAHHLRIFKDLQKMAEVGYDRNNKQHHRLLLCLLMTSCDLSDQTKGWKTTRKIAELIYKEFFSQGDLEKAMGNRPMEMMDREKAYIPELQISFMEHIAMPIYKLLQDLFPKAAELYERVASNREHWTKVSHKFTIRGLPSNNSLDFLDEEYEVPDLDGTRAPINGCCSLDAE
- assay: IMAP FP PDE assay, human PDE2A1
- Type: biochemical
- measurement.conditions: Lab B; read-out: Human PDE2 Ki (nM) Lab B
quantity: Ki (nM)

> print(dat)
                                    molecule  value.unit  result
 1  COc1ccc(Cc2nc3c(c(C(F)F)nn3C(C)c3ccc(C(F)(F)F)cc3)c(=O)[nH]2)cc1OC (single isomer, unassigned) [Example 196]          nM      61
 2  Cc1nc2c(c(C(F)F)nn2C(C)c2ccc(OC(F)(F)F)c(F)c2)c(=O)[nH]1 (single isomer, unassigned) [Example 169]          nM      18
 3  COCc1nc2c(c(C(F)F)nn2C(C)c2ccc(C(F)(F)F)cc2)c(=O)[nH]1 (single isomer, unassigned) [Example 187]          nM     231
 4  Cc1nc2c(c(C(F)F)nn2C(C)c2ccc(C(F)(F)F)cc2F)c(=O)[nH]1 (single isomer, unassigned) [Example 186]          nM    0.63
 5  Cc1nc2c(c(CO)nn2C2(c3ccc(C(F)(F)F)cc3)CC2)c(=O)[nH]1          nM     8.2
 6  Cc1nc2c(c(-c3nnco3)nn2C(C)c2ccc(C(F)(F)F)cc2)c(=O)[nH]1 (single isomer, unassigned) [Example 263]          nM    0.88
 7  Cc1nc2c(c(C(N)=O)nn2C(C)c2ccc(C(F)(F)F)cc2)c(=O)[nH]1 (single isomer, unassigned) [Example 257]          nM     115
 8  Cc1nc2c(c(CO)nn2[C@H](c2ccc(C(C)(C)C)cc2)C(C)C)c(=O)[nH]1          nM       2
 9  CC(c1ccc(C(F)(F)F)cc1)n1nc(CO)c2c(=O)[nH]c(C(F)F)nc21 (stereo not shown)          nM      64
10  Cc1nc2c(c(CO)nn2C(C)c2ccc(OC(F)(F)F)cc2F)c(=O)[nH]1 (single isomer, unassigned) [Example 105]          nM     1.9
11  Cc1nc2c(c(C(F)F)nn2C(c2ccc(C(F)(F)F)cc2)C(C)C)c(=O)[nH]1 (single isomer, unassigned) [Example 171]          nM      43
12  CC(=O)Nc1nn(C(C)c2ccc(C(F)(F)F)cc2)c2nc(C)[nH]c(=O)c12 (single isomer, unassigned) [Example 260]          nM      54
13  Cc1nc2c(c(CF)nn2C(c2ccc(OC(F)(F)F)cc2)C2CC2)c(=O)[nH]1 (single isomer, unassigned) [Example 224]          nM    0.48
